Recorded below: Ki, system human cathepsin L (Homo sapiens, UniProt P07711).
Observed property: Ki (µM)

Look over these answered cases.
CC1(C[C@H](NC(=O)c2ccoc2)C(=O)NC2(C(=O)C(=O)NC3CC3)CC(F)(F)C2)CCCC1 | 12
CC1(C[C@H](NC(=O)N2CCOCC2)C(=O)NC2(C(=O)C(=O)NC3CC3)CCC2)CCCC1 | 7.1

A. CNC(=O)C(=O)C1(NC(=O)[C@H](CC(C)(C)C)NC(=O)c2ccc(NS(=O)(=O)c3ccccc3)cc2)CCC1
B. CC1(C[C@H](NC(=O)N2CCOCC2)C(=O)NC2(C(=O)C(=O)NCCCCl)CCC2)CCCC1
Sorting by Ki in descending order, would A or B appear first? Provide the label of your selected option as the answer.
A
(A: 14 µM, B: 6.3 µM)

====

Molecular target: cathepsin K (Homo sapiens)
Sequence (P43235 115-329): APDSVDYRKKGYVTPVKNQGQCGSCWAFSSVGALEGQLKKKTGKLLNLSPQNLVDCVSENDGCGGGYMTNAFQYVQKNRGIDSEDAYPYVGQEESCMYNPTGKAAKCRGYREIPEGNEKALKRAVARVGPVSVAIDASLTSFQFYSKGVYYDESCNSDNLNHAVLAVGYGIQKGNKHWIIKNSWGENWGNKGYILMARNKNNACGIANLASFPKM
Test: Determination of cathepsin K proteolytic catalytic activity (H-D-Ala-Leu-Lys-AMC fluorogenic substrate)
Conditions: human recombinant enzyme 5 nM, ambient temperature; read-out: Ki Cat. K
Observed property: Ki (nM)

Cn1ccc(NC(=O)C(=O)C2(NC(=O)[C@H](CC3CCCCC3)NC(=O)N3CCOCC3)CC(F)(F)C2)n1 | 3600
Cn1ccc(NC(=O)C(=O)C2(NC(=O)[C@H](CC3(C)CCCC3)NC(=O)N3CCOCC3)CCC2)n1 | 460
COC1CC(NC(=O)C(CC2(C)CCC2)NC(=O)N2CCOCC2)(C(=O)C(=O)NC2CC2)C1 (single isomer, unassigned) | 1000
Cn1ccc(NC(=O)C(=O)C2(NC(=O)[C@H](CC3(C)CCCC3)NC(=O)C3CC3)CC(F)C2)n1 (stereo partly drawn) | 360

I. O=C(NC1CC1)C(=O)C1(NC(=O)[C@H](CC2(F)CCCC2)NC(=O)c2ccc(O)c(F)c2)CC(F)(F)C1
II. Cn1ccc(NC(=O)C(=O)[C@]2(NC(=O)[C@H](CC3(C)CCCC3)NC(=O)N3CCCC3)C[C@H](F)C2)n1
Sorting by Ki in descending order, would I or II appear first? Provide the label of your selected option as the answer.
I
(I: 2400 nM, II: 180 nM)

====

pKi: −log10 of the molar value.
Recorded below: pKi, system human cathepsin S (Homo sapiens, UniProt P25774).
Observed property: pKi

P. CC1(C[C@H](NC(=O)N2CCOCC2)C(=O)NC2(C(=O)C(=O)NC3CC3)CCC2)CCCC1
Q. Cn1ccc(NC(=O)C(=O)C2(NC(=O)[C@H](CC3(C)CCCC3)NC(=O)N3CCOCC3)CCC2)n1
R. CNC(=O)C(=O)C1(NC(=O)[C@H](CC(C)(C)C)NC(=O)c2ccc(NS(=O)(=O)c3ccccc3)cc2)CCC1
S. COC1CC(NC(=O)C(CC2(C)CCC2)NC(=O)N2CCOCC2)(C(=O)C(=O)NC2CC2)C1 (single isomer, unassigned)
Output the listed items in decreasing order of pKi. // rank by listing labels in the order requested
Q, R, P, S
(Q: 9.72, R: 9.23, P: 8.64, S: 8.41)

1. CC1(C[C@H](NC(=O)c2ccoc2)C(=O)NC2(C(=O)C(=O)NC3CC3)CC(F)(F)C2)CCCC1
2. Cn1ccc(NC(=O)C(=O)[C@]2(NC(=O)[C@H](CC3(C)CCCC3)NC(=O)N3CCCC3)C[C@H](F)C2)n1
Hi! Which is lower in terms of pKi, the first one 1 or the second one 2 ? Provide the label of your selected option as the answer.
1
(1: 9.10, 2: 9.46)

All figures here come from patent US8853281B2.
